Target: human 11-beta HSD-2 (Homo sapiens, UniProt P80365)
Sequence (P80365 whole entry): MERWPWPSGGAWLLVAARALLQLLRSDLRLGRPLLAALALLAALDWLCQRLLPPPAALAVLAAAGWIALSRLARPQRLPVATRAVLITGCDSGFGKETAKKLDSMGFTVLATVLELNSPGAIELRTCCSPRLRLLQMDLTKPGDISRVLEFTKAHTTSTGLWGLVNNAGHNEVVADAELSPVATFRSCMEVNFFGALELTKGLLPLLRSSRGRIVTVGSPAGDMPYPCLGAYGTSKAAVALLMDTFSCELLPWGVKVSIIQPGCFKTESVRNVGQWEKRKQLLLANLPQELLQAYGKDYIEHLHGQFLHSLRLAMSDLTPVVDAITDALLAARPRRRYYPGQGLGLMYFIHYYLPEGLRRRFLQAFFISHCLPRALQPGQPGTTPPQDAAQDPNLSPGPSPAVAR
Assay: 11beta-HSD2 enzyme assay, human recombinant enzyme
Details: cortisol/NAD, read-out: Inhibition of human 11-beta HSD-2 IC50
pIC50: −log10 of the molar value.
reported.property: pIC50

Incoming: Quote human 11-beta HSD-2 (Homo sapiens, UniProt P80365) pIC50 for entry CN(C)c1ccc(C(=O)N2CCC(c3c[nH]c4ncccc34)C2)cc1 (stereo not shown) [Ex. 7] .
Outgoing: < 5.00

====

Target: UniProt P16232
Sequence (P16232 whole entry): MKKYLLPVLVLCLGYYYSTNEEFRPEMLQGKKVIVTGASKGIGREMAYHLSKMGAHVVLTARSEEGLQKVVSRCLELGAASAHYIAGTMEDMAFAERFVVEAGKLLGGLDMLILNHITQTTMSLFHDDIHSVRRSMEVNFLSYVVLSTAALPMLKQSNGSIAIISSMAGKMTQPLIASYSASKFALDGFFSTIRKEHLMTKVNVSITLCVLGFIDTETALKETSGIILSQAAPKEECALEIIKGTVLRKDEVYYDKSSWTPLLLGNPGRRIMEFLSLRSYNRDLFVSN
reported.property: pIC50
Recall that pIC50 is obtained by taking minus log10 of the concentration measured in molar.

Incoming: Return the recorded pIC50 value; entry: O=C(C1CCCCC1)N1CCC(c2c[nH]c3ncccc23)C1 (stereo not shown) [Ex. 3]
Outgoing: 6.29
